system: HL-60(TB) leukemia; assay: NCI-60 one-dose screen, 48 h; conditions: 10 µM unless noted
This is part of a sample that, as a whole, favours compounds with a hit. Of some 83,000 tested, about 20% had one in any assay. Activity calls are given as the source filed them. Rule for the calls: active = growth percent below 10; inactive = the rest.
Parameter call: string, one of 1 for active, 0 for inactive

Solved entries:
INPUT: Tell me the assay call for CCCCCCCCN(CCCCCCCC)C(=N)c1ccnc2ccccc12 please.
OUTPUT: 1

INPUT: Tell me the assay call for CC/C=C\C/C=C\C[C@H](O)C/C=C1/C(=O)C=C[C@@H]1C/C=C\CCCC(=O)OC please.
OUTPUT: 1

INPUT: Tell me the assay call for Cn1cc(-c2nc(-c3c[nH]c4ccncc34)cs2)c2cc(F)ccc21 please.
OUTPUT: 1

Further cases:
INPUT: Tell me the assay call for O=c1c2c(=NCCN3CCCC3)cc3c(=O)n(CCCN4CCOCC4)c(=O)c4ccc(c(O)n1CCCN1CCOCC1)c2c4-3 please.
OUTPUT: 1

INPUT: Tell me the assay call for COC(=O)c1ccc2c(c1)n(Cc1ccc3ccccc3c1)c[n+]2Cc1ccc2ccccc2c1 please.
OUTPUT: 1

###

System: HL-60(TB) leukemia
Test: NCI-60 one-dose screen, 48 h
Settings: 10 µM unless noted
Procedure: Growth inhibition of the HL-60(TB) human tumor cell line is measured as a screen for anti-cancer activity. Cells are grown in 96 well plates and exposed to the test compound for 48 hours. Compounds are tested at a single concentration, which is 10^-5 M for most compounds. The reported endpoint is percent growth (GI% or GIPRCNT), where numbers from 0 - 100% represent growth inhibition, and numbers from -100% - 0 represent cell death. For example, a value of 40 represents 60% growth inhibition. […]
About 83,000 compounds went through this panel and 20% of them were active in at least one assay; those are over-represented in the sample as a whole. Calls of active or inactive are those of the source. The calls were made as follows: active = growth percent below 10; inactive = the rest.
Parameter call: string, one of active, inactive

Solved entries:
INPUT: Tell me the assay call for Cc1ccc(C(SCC(N)C(=O)O)(c2ccc(C)cc2)c2ccc(C)cc2)cc1 (stereo not drawn) please.
OUTPUT: active

INPUT: Tell me the assay call for CC(=O)/C=C/c1cc2cc(Cl)ccc2[nH]c1=O please.
OUTPUT: inactive

Let us examine a further case.
INPUT: Tell me the assay call for CSc1cccc(NC(=O)Nc2nc3c(C)cccc3s2)c1 please.
OUTPUT: inactive

###

test system: HL-60(TB) leukemia; assay: NCI-60 one-dose screen, 48 h (100 = growth as untreated, 0 = no growth, -100 = all killed); settings: 10 µM unless noted
About 83,000 compounds went through this panel and 20% of them were active in at least one assay; those are over-represented in the sample as a whole.
Quick list: growth per entry.
Provide the reading as a plain figure in %.

INPUT: Which growth reading was recorded for the compound Cc1ccc(Cn2c(-c3cccs3)nc3ccccc32)cc1 ?
OUTPUT: 122

INPUT: Which growth reading was recorded for the compound O=C1C[C@H](Sc2nc(-c3ccc(F)cc3)cc(C(F)(F)F)n2)[C@H]2CO[C@@H]1O2 ?
OUTPUT: 46.9

INPUT: Which growth reading was recorded for the compound CCN(CC)c1ccc2c(c1)OS(=O)(=O)N=C2 ?
OUTPUT: 101

Further cases:
INPUT: Which growth reading was recorded for the compound O=NN(CCCl)C(=O)Nc1ccc(NC(=O)N(CCCl)N=O)cc1 ?
OUTPUT: 94.8

###

Quick list: growth per entry.
System: HL-60(TB) leukemia
Experiment: NCI-60 one-dose screen, 48 h (100 = growth as untreated, 0 = no growth, -100 = all killed)
Settings: 10 µM unless noted
Protocol: Growth inhibition of the HL-60(TB) human tumor cell line is measured as a screen for anti-cancer activity. Cells are grown in 96 well plates and exposed to the test compound for 48 hours. Compounds are tested at a single concentration, which is 10^-5 M for most compounds. The reported endpoint is percent growth (GI% or GIPRCNT), where numbers from 0 - 100% represent growth inhibition, and numbers from -100% - 0 represent cell death. For example, a value of 40 represents 60% growth inhibition. […]
The panel holds about 83,000 compounds, 20% with a hit somewhere; the sample as a whole holds those more often. Active and inactive are the calls of the source. Rule for the calls: active = growth percent below 10; inactive = the rest.

Completed entries (count: 3):
INPUT: Which growth reading was recorded for the compound COc1ccc(-c2cc(/C=C3\C(=O)Nc4ccc(Cl)cc43)[nH]n2)cc1 ?
OUTPUT: 22.6% (inactive)

INPUT: Which growth reading was recorded for the compound NCCn1cc(-c2nc(-c3c[nH]c4ncccc34)cs2)c2cc(F)ccc21 ?
OUTPUT: 62% (inactive)

INPUT: Which growth reading was recorded for the compound Oc1ccc(C2OCCO2)c2cccnc12 ?
OUTPUT: 15.8% (inactive)

Further cases:
INPUT: Which growth reading was recorded for the compound CC(C)(CC(=O)O)CC(=O)O ?
OUTPUT: 103% (inactive)

INPUT: Which growth reading was recorded for the compound COc1ccc(-c2cn(-c3ccc(Cl)cc3)c(SCC(=O)c3ccc([N+](=O)[O-])cc3)n2)cc1 ?
OUTPUT: 84% (inactive)

INPUT: Which growth reading was recorded for the compound CC1Cc2c(ncnc2-n2cnc3ccccc32)N(C)c2ccccc21 (centres undefined) ?
OUTPUT: 15.9% (inactive)

###

Test system: RPMI-8226 leukemia
Assay: NCI-60 one-dose screen, 48 h (100 = growth as untreated, 0 = no growth, -100 = all killed)
Details: 10 µM unless noted
Method: Growth inhibition of the RPMI-8226 human tumor cell line is measured as a screen for anti-cancer activity. Cells are grown in 96 well plates and exposed to the test compound for 48 hours. Compounds are tested at a single concentration, which is 10^-5 M for most compounds. The reported endpoint is percent growth (GI% or GIPRCNT), where numbers from 0 - 100% represent growth inhibition, and numbers from -100% - 0 represent cell death. For example, a value of 40 represents 60% growth inhibition. […]
This is part of a sample that, as a whole, favours compounds with a hit. Of some 83,000 tested, about 20% had one in any assay.
readout type: growth (%)
Provide the reading as a plain figure in %.

INPUT: Which growth reading was recorded for the molecule CC(C)[C@]12O[C@H]1[C@@H]1O[C@]13[C@]1(O[C@H]1C[C@H]1C4=C(CC[C@@]13C)C(=O)OC4)[C@@H]2OC(=O)OC(C)(C)C ?
OUTPUT: 20.6

INPUT: Which growth reading was recorded for the molecule CCC1([N+](=O)[O-])COP(=O)(NCc2cccnc2)OC1 (stereo not drawn) ?
OUTPUT: 104

Further cases:
INPUT: Which growth reading was recorded for the molecule O=C(N/N=C/c1ccc(N(CCCl)CCCl)cc1)c1cc(=O)[nH]c(=O)[nH]1 ?
OUTPUT: 86.7

INPUT: Which growth reading was recorded for the molecule CC(C)(C)NCC(O)c1ccccc1Cl (stereo not drawn) ?
OUTPUT: 6.19

INPUT: Which growth reading was recorded for the molecule CNC(=O)Oc1ccccc1-c1ccccc1 ?
OUTPUT: 99.4

INPUT: Which growth reading was recorded for the molecule C[CH2][Sn]([CH2]C)([CH2]C)[NH]S(=O)(=O)c1ccc(C)cc1 ?
OUTPUT: 115

INPUT: Which growth reading was recorded for the molecule COc1ccccc1N1CCN(CCc2c[nH]c3cc4c(cc23)OCO4)CC1 ?
OUTPUT: 47.1

INPUT: Which growth reading was recorded for the molecule CC(=O)O[C@H]1CCC2C3CCC4=C/C(=N/O)CCC4(C)C3CCC21C (stereo partly drawn) ?
OUTPUT: 89.4

INPUT: Which growth reading was recorded for the molecule N#[N+]c1cnc([O-])[nH]c1=O ?
OUTPUT: 60.2

###

system: HL-60(TB) leukemia; assay: NCI-60 one-dose screen, 48 h; conditions: 10 µM unless noted
This is part of a sample that, as a whole, favours compounds with a hit. Of some 83,000 tested, about 20% had one in any assay. Active and inactive are the calls of the source. Rule for the calls: active = growth percent below 10; inactive = the rest.
Parameter call: string, one of active, inactive

INPUT: Tell me the assay call for CCCCCC(=O)Oc1ccc(/C(=C(\C)c2ccccc2)c2ccc(OCCN3CCCCC3)cc2)cc1 please.
OUTPUT: inactive

Further cases:
INPUT: Tell me the assay call for CC(=O)Nc1ccc2c(c1)C(=O)c1cccc(C(=O)O)c1-2 please.
OUTPUT: inactive

INPUT: Tell me the assay call for CCOC(=O)C1=C(c2ccccc2)N=C2N(c3ccccc3)N=C(C(C)=O)N2C1c1ccc(Br)cc1 (stereo not given) please.
OUTPUT: inactive

INPUT: Tell me the assay call for COc1ccc2c(c1)C(=O)/C(=C/c1ncc([N+](=O)[O-])n1C)O2 please.
OUTPUT: active

INPUT: Tell me the assay call for CC[C@H](C)[C@H]1NC(=O)[C@@H](N[C@](C)(O)[C@@H](N)CC(C)C)[C@@H](C)OC(=O)[C@H](Cc2ccc(OC)cc2)N(C)C(=O)[C@@H]2CCCN2C(=O)[C@H](CC(C)C)NC(=O)[C@@H](C)C(=O)[C@H](C(C)C)OC(=O)C[C@@H]1O please.
OUTPUT: active

INPUT: Tell me the assay call for COc1ccc(OC)c(/C=C/C(=O)N/N=C/c2ccccc2)c1 please.
OUTPUT: inactive
